Entry source: patent US12508247B2

# method: Fasting single dose PK study in dogs: plasma ondansetron after intravenous bolus of marketed ondansetron injection (reference)
# Type: in vivo
# experimental-context: G1, IV bolus 4 mg/dog, fasted male Beagle dogs
measure-name: clearance (mL/min)
Kindly answer with a numeric value in mL/min, unit omitted.

Query :: Requested field: clearance. Item: Cc1nccn1CC1CCc2c(c3ccccc3n2C)C1=O (stereo not shown)
Result :: 644

----------
# method: Fasting single dose PK study in dogs: plasma ondansetron after intravenous bolus of marketed ondansetron injection (reference)
# Format: in vivo
# experimental-context: G1, IV bolus 4 mg/dog, fasted male Beagle dogs
measure-name: half-life
Answer format: value, then unit.

Query :: Requested field: half-life. Item: Cc1nccn1CC1CCc2c(c3ccccc3n2C)C1=O (stereo not shown)
Result :: 52.7 min
